target: mouse NPR1 extracellular domain expressed with a C-terminal myc-myc-hexahistidine (mNPR1-MMH) (mouse, UniProt P18293 29-469); experiment: SPR, mAb captured, 37 C
Sequence (P18293 other isoform, or with tags, fused parts or gaps): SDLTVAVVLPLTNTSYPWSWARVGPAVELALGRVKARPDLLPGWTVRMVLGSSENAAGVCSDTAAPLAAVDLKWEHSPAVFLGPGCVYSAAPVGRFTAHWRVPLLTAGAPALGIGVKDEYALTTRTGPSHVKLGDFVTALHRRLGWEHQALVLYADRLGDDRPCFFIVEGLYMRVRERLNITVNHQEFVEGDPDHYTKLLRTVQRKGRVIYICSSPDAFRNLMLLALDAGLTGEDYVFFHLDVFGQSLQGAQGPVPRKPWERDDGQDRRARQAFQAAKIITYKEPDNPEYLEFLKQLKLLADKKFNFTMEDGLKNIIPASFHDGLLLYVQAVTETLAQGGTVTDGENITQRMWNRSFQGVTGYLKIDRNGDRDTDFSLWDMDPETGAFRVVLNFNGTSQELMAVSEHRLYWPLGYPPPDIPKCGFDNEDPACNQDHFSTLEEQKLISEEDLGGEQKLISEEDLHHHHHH
quantity-name: 100 nM Ag Bound (RU)
Provide only the numeric value, understood in RU.

binder	100 nM Ag Bound (RU)
mAb25479 (antibody, V domains shown) VH: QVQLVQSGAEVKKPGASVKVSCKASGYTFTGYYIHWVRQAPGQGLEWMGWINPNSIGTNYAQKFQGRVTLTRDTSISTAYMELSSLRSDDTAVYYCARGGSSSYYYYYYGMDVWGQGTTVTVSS VL: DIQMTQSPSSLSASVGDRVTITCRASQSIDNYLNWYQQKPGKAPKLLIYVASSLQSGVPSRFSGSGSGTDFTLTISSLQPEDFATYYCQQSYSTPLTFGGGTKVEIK	1
mAb25502 (antibody, V domains shown) VH: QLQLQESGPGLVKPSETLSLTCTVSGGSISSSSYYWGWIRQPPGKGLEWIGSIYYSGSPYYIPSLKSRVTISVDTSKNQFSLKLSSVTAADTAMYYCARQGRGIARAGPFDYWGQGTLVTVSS VL: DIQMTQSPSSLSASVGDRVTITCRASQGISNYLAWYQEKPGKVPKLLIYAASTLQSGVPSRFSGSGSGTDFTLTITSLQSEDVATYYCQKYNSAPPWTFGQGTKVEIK	0

Next item in the queue.
Can you look up the measured 100 nM Ag Bound (RU) of mAb22035 (antibody, V domains shown) VH: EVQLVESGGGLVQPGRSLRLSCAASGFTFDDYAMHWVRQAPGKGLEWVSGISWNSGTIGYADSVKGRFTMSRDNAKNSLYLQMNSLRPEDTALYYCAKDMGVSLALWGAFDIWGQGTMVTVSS VL: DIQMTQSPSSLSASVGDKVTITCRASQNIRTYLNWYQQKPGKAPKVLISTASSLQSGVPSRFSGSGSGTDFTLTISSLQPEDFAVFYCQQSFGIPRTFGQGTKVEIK for me?
1
